enrichment by entry:
B1: NLV2 TCR alpha chain (CDR3α only) (parent)
chain: AGPMKTSYDKVI

Variants of: B1
Test: T-Switch: Jurkat TCRβ−/− cells expressing a CDR3 saturation-mutagenesis library, stained with two peptide-HLA-A*02:01 tetramers (original and novel peptide) plus anti-CD3, FACS-sorted into four gates, gDNA sequenced
Settings: with both tetramers (double-positive gate): HLA-A*02:01 with … and with …, tetramers 1 µg/mL, 30 min on ice, SP, DP and SW gates expanded about 10 days between rounds ('two to three rounds of selection' in the Methods), gate DP: higher = more of the variant in the gate that binds both peptides. Fold enrichment of the CDR3 variant in one FACS gate of a two-tetramer stain. SP/DP/SW gates were expanded and re-sorted bef, unresolved parent, parent is a CDR3 fragment, scale: fold enrichment, numbering: sequential-on-construct, sequence starts at 1
Answer with a number only.

# sequenceVariant, measurementName, testValue
measured = [
    ("[…] (CDR3 as printed); G2R derived by comparing it with the table's wild-type CDR3 AGPMKTSYDKVI", "enrichment", 0),
    ("[…] (CDR3 as printed); V11D derived by comparing it with the table's wild-type CDR3 AGPMKTSYDKVI", "enrichment", 0),
    ("[…] (CDR3 as printed); A1H derived by comparing it with the table's wild-type CDR3 AGPMKTSYDKVI", "enrichment", 0),
]

Would you mind telling me what enrichment value was observed for […] (CDR3 as printed); I12T derived by comparing it with the table's wild-type CDR3 AGPMKTSYDKVI ?
0

And the next one, […] (CDR3 as printed); T6Y derived by comparing it with the table's wild-type CDR3 AGPMKTSYDKVI ?
0

And the next one, […] (CDR3 as printed); G2W derived by comparing it with the table's wild-type CDR3 AGPMKTSYDKVI ?
0

And the next one, […] (CDR3 as printed); I12V derived by comparing it with the table's wild-type CDR3 AGPMKTSYDKVI ?
0

And the next one, […] (CDR3 as printed); K5I derived by comparing it with the table's wild-type CDR3 AGPMKTSYDKVI ?
0

And the next one, […] (CDR3 as printed); D9K derived by comparing it with the table's wild-type CDR3 AGPMKTSYDKVI ?
0

And the next one, […] (CDR3 as printed); K10V derived by comparing it with the table's wild-type CDR3 AGPMKTSYDKVI ?
0
